Tested on: HIV-1 (H9/IIIB strain)
protocol.notes: microbe, parasite or virus in culture
Assay type: cell-based
assay.context: 10% normal human serum; MT4-GFP cells infected with HIV-1 H9/IIIB; inhibition of reproductive ratio R0; read-out: Viking, IC50 (10% NHS)
Labelling: IC50 reported below 50 nM becomes 1; at or above becomes 0.

compound: CC(C)OC(=O)[C@@H](C)CNP(=O)(CO[C@H](C)Cn1cnc2c(N)ncnc21)N[C@H](C)C(=O)OC1CCCC1 (single isomer, unassigned) [Example 22B]
experimental.system: HIV-1 (H9/IIIB strain)
class.assignment: 0
--
compound: CC(C)OC(=O)C[C@H](C)NP(=O)(CO[C@H](C)Cn1cnc2c(N)ncnc21)N[C@H](C)C(=O)OC1CCC1 (single isomer, unassigned) [Example 19B]
experimental.system: HIV-1 (H9/IIIB strain)
class.assignment: 0
--
compound: CC(C)OC(=O)[C@@H](C)CNP(=O)(CO[C@H](C)Cn1cnc2c(N)ncnc21)N[C@H](C)C(=O)OC1CCC1 (single isomer, unassigned) [Example 20B]
experimental.system: HIV-1 (H9/IIIB strain)
class.assignment: 0
--
compound: CC(C)OC(=O)[C@@H](C)CNP(=O)(CO[C@H](C)Cn1cnc2c(N)ncnc21)N[C@H](C)C(=O)OC1CCCC1 (single isomer, unassigned) [Example 22A]
experimental.system: HIV-1 (H9/IIIB strain)
class.assignment: 0
--
compound: CC(C)OC(=O)[C@@H](C)CNP(=O)(CO[C@H](C)Cn1cnc2c(N)ncnc21)N[C@@H](C)C(=O)OC1CCCCC1 (single isomer, unassigned) [Example 13B]
experimental.system: HIV-1 (H9/IIIB strain)
class.assignment: 1
--
compound: CC(C)OC(=O)[C@@H](C)CNP(=O)(CO[C@H](C)Cn1cnc2c(N)ncnc21)N[C@@H](C)C(=O)OC1CCC1 (single isomer, unassigned) [Example 12B]
experimental.system: HIV-1 (H9/IIIB strain)
class.assignment: 1

hey, is IC50 for CC(C)OC(=O)C[C@H](C)NP(=O)(CO[C@H](C)Cn1cnc2c(N)ncnc21)N[C@@H](C)C(=O)OC(C)C (single isomer, unassigned) [Example 8A] lower than 50 nM or not?
1

Threshold test, IC50 < 50 nM: CC(C)OC(=O)[C@@H](C)CNP(=O)(CO[C@H](C)Cn1cnc2c(N)ncnc21)N[C@H](C)C(=O)OC1CCCCC1 (single isomer, unassigned) [Example 21A]
0

Lab note: confirm whether the reported IC50 for this compound is below 50 nM, equality not counting. compound: CC(C)OC(=O)[C@@H](C)CNP(=O)(CO[C@H](C)Cn1cnc2c(N)ncnc21)N[C@H](C)C(=O)OC1CCCCC1 (single isomer, unassigned) [Example 21B]
0

# strict comparison: is reported IC50 < 50 nM? input = CCCCCCCOC(=O)[C@H](C)NP(=O)(CO[C@H](C)Cn1cnc2c(N)ncnc21)NC[C@H](C)C(=O)OC(C)C (single isomer, unassigned) [Example 17A]
1

Dear colleague, could you confirm whether IC50 of CC(C)OC(=O)[C@@H](C)CNP(=O)(CO[C@H](C)Cn1cnc2c(N)ncnc21)N[C@H](C)C(=O)OC1CCC1 (single isomer, unassigned) [Example 20A] falls below 50 nM? Thanks.
0

Just wondering, is IC50 of CCCCCCOC(=O)C(C)(C)NP(=O)(CO[C@H](C)Cn1cnc2c(N)ncnc21)N[C@@H](CC(=O)OC(C)C)C(C)C (single isomer, unassigned) [Example 28A] below 50 nM?
1

State whether 50 nM exceeds IC50 recorded for CC(C)OC(=O)C[C@@H](C)NP(=O)(CO[C@H](C)Cn1cnc2c(N)ncnc21)N[C@@H](C)C(=O)OC(C)C (single isomer, unassigned) [Example 9B] .
0

In the record for CCCCCOC(=O)[C@H](C)NP(=O)(CO[C@H](C)Cn1cnc2c(N)ncnc21)NC[C@H](C)C(=O)OC(C)C (single isomer, unassigned) [Example 16B] , is IC50 less than 50 nM?
1

Is IC50 of CC(C)OC(=O)CCNP(=O)(CO[C@H](C)Cn1cnc2c(N)ncnc21)N[C@H](C)C(=O)OC1CCC1 (single isomer, unassigned) [Example 23A] strictly below 50 nM?
0

Is the reported IC50 for CCCCCCOC(=O)C(C)(C)NP(=O)(CO[C@H](C)Cn1cnc2c(N)ncnc21)N[C@@H](CC(=O)OC(C)C)C(C)C (single isomer, unassigned) [Example 28B] strictly below 50 nM?
1

Does the reported IC50 of the following compound sit strictly below 50 nM? CCCCCOC(=O)C(C)(C)NP(=O)(CO[C@H](C)Cn1cnc2c(N)ncnc21)N[C@@H](C)CC(=O)OC(C)C (single isomer, unassigned) [Example 26A]
1

Identify whether the compound CC(C)OC(=O)[C@H](C)CNP(=O)(CO[C@H](C)Cn1cnc2c(N)ncnc21)N[C@@H](C)C(=O)OC(C)C (single isomer, unassigned) [Example 10B] records IC50 below 50 nM.
0

Lab note: IC50 threshold 50 nM. Does this compound come in strictly under it? CC(C)COC(=O)[C@H](C)NP(=O)(CO[C@H](C)Cn1cnc2c(N)ncnc21)NC[C@H](C)C(=O)OC(C)C (single isomer, unassigned) [Example 14B]
1

API: query returns whether the compound falls strictly under 50 nM in IC50. Query: CC(C)OC(=O)[C@H](C)CNP(=O)(CO[C@H](C)Cn1cnc2c(N)ncnc21)N[C@@H](C)C(=O)OC(C)C (single isomer, unassigned) [Example 10A]
1
